- measured.on: PKG1A (Homo sapiens, UniProt Q13976)
- Sequence (Q13976 1-671): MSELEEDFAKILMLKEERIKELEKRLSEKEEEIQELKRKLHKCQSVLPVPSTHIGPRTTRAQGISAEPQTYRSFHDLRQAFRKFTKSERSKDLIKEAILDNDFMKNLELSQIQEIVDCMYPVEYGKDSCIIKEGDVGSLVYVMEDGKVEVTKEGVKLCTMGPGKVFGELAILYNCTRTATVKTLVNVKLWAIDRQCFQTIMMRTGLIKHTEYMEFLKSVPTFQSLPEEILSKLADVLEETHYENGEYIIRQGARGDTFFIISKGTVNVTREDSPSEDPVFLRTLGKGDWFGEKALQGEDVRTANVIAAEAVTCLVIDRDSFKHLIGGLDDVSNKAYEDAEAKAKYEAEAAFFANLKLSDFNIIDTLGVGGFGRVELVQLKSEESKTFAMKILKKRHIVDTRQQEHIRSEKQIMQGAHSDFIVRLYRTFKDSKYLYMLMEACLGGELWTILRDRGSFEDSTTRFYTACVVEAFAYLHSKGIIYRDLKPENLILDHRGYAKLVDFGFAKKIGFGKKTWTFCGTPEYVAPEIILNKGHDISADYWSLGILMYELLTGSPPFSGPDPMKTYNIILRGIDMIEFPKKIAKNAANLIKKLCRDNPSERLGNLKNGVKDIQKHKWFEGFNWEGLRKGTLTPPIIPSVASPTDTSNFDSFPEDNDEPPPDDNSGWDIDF
pIC50: −log10 of the molar value.
reported.metric: pIC50

Item under review: CC[C@@H]1CN(C(=O)NCC(F)(F)F)C[C@@H]1c1cnc2cnc3[nH]ccc3n12 . Reported pIC50?
< 5.00

====

- measured.on: JNK1 (Homo sapiens)
- Sequence (P45983 whole entry, species assumed): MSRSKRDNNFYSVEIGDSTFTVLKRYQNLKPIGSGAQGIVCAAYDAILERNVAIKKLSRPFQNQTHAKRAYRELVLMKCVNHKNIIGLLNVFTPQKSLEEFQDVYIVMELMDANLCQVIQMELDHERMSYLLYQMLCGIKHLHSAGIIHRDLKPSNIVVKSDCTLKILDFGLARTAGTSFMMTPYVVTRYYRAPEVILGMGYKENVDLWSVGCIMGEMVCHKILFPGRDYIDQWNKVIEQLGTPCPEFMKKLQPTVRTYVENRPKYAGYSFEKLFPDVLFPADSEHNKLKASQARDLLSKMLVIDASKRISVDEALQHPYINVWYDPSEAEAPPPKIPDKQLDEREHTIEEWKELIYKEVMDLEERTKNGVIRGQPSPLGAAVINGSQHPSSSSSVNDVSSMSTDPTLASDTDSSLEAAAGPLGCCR
reported.metric: IC50

I'm curious: which IC50 was measured for CC[C@@H]1CN(C(=O)NCC(F)(F)F)C[C@@H]1c1cnc2cnc3[nH]ccc3n12 tested on JNK1 (Homo sapiens)?
> 10 µM

====

- measured.on: DYRK1B (Homo sapiens, UniProt Q9Y463)
- Sequence (Q9Y463 whole entry, species assumed): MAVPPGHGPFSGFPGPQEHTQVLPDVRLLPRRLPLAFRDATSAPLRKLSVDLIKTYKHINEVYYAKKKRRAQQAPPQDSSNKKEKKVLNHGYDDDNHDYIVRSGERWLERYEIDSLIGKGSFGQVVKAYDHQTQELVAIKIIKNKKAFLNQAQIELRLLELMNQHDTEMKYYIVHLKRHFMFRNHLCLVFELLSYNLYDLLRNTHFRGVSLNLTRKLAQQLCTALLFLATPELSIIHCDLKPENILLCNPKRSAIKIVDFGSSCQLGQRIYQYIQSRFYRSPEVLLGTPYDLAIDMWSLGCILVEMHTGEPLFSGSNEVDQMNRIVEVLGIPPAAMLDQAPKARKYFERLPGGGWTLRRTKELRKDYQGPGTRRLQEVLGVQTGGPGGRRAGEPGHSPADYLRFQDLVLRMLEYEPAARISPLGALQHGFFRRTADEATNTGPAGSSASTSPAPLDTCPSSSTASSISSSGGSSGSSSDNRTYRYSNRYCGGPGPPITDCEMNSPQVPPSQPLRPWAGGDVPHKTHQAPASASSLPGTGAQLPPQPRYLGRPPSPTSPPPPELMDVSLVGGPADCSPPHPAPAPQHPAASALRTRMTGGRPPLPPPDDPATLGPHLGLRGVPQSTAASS
reported.metric: IC50

// map CC[C@@H]1CN(C(=O)NCC(F)(F)F)C[C@@H]1c1cnc2cnc3[nH]ccc3n12 to recorded IC50 (system: DYRK1B (Homo sapiens, UniProt Q9Y463))
> 10 µM

====

- measured.on: Rock2 (Homo sapiens)
- Sequence (O75116 whole entry, species assumed): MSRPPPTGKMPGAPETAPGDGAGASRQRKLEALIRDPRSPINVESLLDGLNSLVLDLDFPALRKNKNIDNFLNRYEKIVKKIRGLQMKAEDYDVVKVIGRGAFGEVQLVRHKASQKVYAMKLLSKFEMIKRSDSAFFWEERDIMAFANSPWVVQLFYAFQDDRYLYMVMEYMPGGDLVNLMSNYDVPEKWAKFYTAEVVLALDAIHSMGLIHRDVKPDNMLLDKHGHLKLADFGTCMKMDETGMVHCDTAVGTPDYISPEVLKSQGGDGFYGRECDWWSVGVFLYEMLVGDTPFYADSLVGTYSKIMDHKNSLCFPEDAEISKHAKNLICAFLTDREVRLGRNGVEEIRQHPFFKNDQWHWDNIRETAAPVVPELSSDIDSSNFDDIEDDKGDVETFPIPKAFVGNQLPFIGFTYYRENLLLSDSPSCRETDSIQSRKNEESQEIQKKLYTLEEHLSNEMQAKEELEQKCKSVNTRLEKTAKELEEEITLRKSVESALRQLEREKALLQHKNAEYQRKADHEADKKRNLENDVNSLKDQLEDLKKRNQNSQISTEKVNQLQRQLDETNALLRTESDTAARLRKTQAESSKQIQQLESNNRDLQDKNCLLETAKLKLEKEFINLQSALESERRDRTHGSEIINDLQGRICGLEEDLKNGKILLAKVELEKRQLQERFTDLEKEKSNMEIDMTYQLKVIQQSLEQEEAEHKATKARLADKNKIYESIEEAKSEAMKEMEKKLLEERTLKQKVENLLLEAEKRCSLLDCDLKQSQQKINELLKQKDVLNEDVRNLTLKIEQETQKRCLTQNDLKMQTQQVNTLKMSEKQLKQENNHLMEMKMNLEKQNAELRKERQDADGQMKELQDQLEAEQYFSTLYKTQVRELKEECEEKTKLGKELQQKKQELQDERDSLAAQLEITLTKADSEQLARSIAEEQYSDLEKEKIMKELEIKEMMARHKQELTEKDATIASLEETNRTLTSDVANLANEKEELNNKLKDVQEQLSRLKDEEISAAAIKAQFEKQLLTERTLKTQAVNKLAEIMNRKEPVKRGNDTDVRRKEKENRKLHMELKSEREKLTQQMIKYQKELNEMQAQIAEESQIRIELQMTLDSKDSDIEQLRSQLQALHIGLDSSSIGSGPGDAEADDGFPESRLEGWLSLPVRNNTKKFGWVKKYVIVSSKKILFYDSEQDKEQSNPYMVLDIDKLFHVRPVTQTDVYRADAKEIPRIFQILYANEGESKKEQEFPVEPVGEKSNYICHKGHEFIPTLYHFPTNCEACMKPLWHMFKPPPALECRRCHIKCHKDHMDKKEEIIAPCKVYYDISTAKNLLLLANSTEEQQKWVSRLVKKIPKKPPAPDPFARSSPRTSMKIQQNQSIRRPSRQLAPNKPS
pIC50: −log10 of the molar value.
reported.metric: pIC50

Lab request: please report pIC50 under test system Rock2 (Homo sapiens) for CC[C@@H]1CN(C(=O)NCC(F)(F)F)C[C@@H]1c1cnc2cnc3[nH]ccc3n12
> 6.00

====

- measured.on: CAMKK2 (Homo sapiens, UniProt Q96RR4)
- Sequence (Q96RR4 whole entry, species assumed): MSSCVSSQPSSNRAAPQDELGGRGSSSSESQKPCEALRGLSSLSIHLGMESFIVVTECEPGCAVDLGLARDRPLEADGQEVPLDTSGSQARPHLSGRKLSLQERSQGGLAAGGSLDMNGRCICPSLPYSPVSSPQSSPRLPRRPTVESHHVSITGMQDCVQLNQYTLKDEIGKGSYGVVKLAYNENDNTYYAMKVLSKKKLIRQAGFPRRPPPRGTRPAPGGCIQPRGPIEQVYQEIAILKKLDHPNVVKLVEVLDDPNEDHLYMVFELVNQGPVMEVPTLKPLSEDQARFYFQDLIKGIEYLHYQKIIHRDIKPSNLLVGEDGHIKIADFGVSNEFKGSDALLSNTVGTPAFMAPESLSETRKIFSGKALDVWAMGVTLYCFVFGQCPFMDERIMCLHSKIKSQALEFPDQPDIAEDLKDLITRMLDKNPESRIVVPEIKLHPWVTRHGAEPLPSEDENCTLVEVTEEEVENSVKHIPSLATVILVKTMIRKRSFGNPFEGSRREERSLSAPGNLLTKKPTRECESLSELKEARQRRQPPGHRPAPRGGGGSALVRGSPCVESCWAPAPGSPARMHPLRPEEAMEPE
pIC50: −log10 of the molar value.
reported.metric: pIC50

What value of pIC50 on CAMKK2 (Homo sapiens, UniProt Q96RR4) does CC[C@@H]1CN(C(=O)NCC(F)(F)F)C[C@@H]1c1cnc2cnc3[nH]ccc3n12 have?
< 5.00

====

- measured.on: GRK5 (Homo sapiens)
- Sequence (P34947 whole entry, species assumed): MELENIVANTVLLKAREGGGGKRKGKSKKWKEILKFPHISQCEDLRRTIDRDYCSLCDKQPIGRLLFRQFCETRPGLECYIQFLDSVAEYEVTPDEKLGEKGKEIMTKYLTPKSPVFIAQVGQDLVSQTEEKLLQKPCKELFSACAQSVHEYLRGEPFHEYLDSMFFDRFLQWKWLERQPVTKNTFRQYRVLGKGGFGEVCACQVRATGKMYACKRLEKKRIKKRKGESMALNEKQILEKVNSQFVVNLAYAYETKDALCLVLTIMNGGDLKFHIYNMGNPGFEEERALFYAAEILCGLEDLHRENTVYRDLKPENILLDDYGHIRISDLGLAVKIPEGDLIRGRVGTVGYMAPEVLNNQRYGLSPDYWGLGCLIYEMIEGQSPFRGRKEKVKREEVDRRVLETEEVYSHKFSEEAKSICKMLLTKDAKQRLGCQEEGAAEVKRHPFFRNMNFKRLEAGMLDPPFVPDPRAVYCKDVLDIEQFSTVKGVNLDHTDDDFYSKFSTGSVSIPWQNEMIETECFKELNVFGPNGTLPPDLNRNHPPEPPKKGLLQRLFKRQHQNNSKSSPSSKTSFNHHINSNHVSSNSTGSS
pIC50: −log10 of the molar value.
reported.metric: pIC50

What value of measured pIC50 is listed for CC[C@@H]1CN(C(=O)NCC(F)(F)F)C[C@@H]1c1cnc2cnc3[nH]ccc3n12 [upadacitinib] ?
< 5.10

====

- measured.on: CSF1R (Homo sapiens, UniProt P07333)
- Sequence (P07333 20-972, species assumed): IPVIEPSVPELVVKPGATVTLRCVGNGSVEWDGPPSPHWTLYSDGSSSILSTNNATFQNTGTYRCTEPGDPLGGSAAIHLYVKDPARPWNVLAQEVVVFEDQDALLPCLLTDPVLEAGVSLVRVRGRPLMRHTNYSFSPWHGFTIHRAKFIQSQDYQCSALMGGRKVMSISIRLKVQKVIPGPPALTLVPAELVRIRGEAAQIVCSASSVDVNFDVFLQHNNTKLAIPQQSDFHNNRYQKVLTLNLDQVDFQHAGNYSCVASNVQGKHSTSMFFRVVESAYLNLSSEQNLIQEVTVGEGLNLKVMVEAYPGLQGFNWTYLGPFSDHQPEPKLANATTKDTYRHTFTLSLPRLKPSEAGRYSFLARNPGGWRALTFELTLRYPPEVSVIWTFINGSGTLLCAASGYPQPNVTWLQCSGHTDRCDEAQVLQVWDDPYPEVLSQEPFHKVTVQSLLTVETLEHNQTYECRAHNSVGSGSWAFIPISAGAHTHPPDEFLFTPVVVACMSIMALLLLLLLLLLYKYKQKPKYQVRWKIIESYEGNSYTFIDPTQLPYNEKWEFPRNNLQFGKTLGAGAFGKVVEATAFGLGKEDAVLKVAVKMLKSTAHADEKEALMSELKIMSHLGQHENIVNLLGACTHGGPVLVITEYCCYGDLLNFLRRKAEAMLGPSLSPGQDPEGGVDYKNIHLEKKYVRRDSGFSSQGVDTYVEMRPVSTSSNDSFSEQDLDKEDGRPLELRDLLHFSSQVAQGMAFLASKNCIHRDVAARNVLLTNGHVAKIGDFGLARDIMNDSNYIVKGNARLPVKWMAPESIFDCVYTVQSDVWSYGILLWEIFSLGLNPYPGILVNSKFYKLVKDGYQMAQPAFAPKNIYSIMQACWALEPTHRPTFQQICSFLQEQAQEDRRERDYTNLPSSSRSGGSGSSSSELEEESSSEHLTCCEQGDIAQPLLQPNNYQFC
reported.metric: IC50

What value of IC50 on CSF1R (Homo sapiens, UniProt P07333) does CC[C@@H]1CN(C(=O)NCC(F)(F)F)C[C@@H]1c1cnc2cnc3[nH]ccc3n12 [upadacitinib] have?
> 10 µM
